Exercise: for every item that follows, state its recorded pIC50.
Target: human Cereblon WT GST-tagged protein (Homo sapiens)
Construct: purchased CISBIO 64BDCRBNPEH
Sequence (Q96SW2 whole entry): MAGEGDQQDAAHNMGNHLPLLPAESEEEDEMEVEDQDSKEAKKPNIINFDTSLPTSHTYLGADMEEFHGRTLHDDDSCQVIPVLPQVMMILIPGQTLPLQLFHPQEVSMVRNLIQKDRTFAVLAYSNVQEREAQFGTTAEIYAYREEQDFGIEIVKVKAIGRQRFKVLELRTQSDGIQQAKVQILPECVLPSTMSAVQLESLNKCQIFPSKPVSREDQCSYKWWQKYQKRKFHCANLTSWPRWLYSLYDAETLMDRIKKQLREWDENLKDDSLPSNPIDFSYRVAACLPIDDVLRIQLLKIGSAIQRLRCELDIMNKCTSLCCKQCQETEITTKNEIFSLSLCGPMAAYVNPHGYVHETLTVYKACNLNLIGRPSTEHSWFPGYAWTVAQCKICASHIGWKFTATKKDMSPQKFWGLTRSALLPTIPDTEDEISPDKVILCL
Test: CRBN binding, HTRF CEREBLON BINDING kit
Settings: CRBN binding, HTRF CEREBLON BINDING kit
pIC50: −log10 of the molar value.

Qu. Complete the entry with pIC50 for CN(C)C/C=C/C(=O)Nc1cc2c(Nc3ccc(F)c(Cl)c3)ncnc2cc1O[C@H]1CCOC1
Ans. < 5.00

Qu. Answer with the recorded pIC50 for the compound listed here: CC(=O)c1c(C)c2cnc(Nc3ccc(N4CCC(N5CCN(Cc6ccc(C7CCC(=O)NC7=O)cc6)CC5)CC4)cn3)nc2n(C2CCCC2)c1=O (stereo not drawn)
Ans. 6.00 to 6.30

Qu. Indicate its recorded pIC50; the compound in question is CN1CCN([C@@H]2CCCN(c3cnc(C(N)=O)c(Nc4ccc(C5CCN(Cc6cccc(N7CCC(=O)NC7=O)c6)CC5)cc4)n3)C2)C1=O
Ans. 6.00 to 6.30

Qu. Using known records, supply pIC50 for COC1CCN(c2nccc(Nc3cc4c(cn3)c(N3CCC(N(C)Cc5cccc(NC6CCC(=O)NC6=O)c5)CC3)nn4C(C)C)n2)CC1 (stereo not drawn)
Ans. 6.00 to 6.30

Qu. Supply reported pIC50 belonging to this compound: CN1CCN([C@@H]2CCCN(c3cnc(C(N)=O)c(Nc4ccc(C5CCN(Cc6ccc(N7CCC(=O)NC7=O)c(F)c6)CC5)cc4)n3)C2)C1=O
Ans. > 6.30

Qu. Look up pIC50 of O=C1CCN(c2cccc(CN3CCC(n4cc(NC(=O)c5coc(-c6ccnc(NCC7CC7)c6)n5)c(C(F)F)n4)CC3)c2)C(=O)N1 and report it.
Ans. 6.00 to 6.30
